tested on: P. aeruginosa ATCC 9721; test: MIC susceptibility testing, broth microdilution in CaMHB; type: cell-based, Pseudomonas aeruginosa; conditions: P. aeruginosa ATCC 9721; Table 4
Where a name gives a salt, the structure may show the parent alone. Where a SMILES comes first, the peptide text is derived from it. Bridges are numbered along the chain shown (N, C = ends). [ ]: non-standard residue; d: D form. The star is where a group is joined. ξ: configuration not given here. ξβ3hGly(cHex) = NC(CC(=O)*)C1CCCCC1; Thr(3ξ) = CC(O)[C@H](N)C(=O)O; Dab = NCC[C@H](N)C(=O)O
quantity measured: MIC (micrograms/mL)
Report the value in micrograms/mL with no unit label.

// sample CC(C)C[C@@H]1NC(=O)[C@@H](Cc2ccccc2)NC(=O)[C@H](CCN)NC(=O)[C@@H](NC(=O)[C@H](CCN)NC(=O)[C@@H](NC(=O)CC(N)C2CCCCC2)C(C)O)CCNC(=O)[C@H](C(C)O)NC(=O)[C@H](CCN)NC(=O)[C@H](CCN)NC1=O (stereo partly drawn) [Example 14, Sulphate Salt] ({ξβ3hGly(cHex)}-[Thr(3ξ)][Dab][Dab][Dab][dF]L[Dab][Dab][Thr(3ξ)]; lactam 3-C) , its MIC was 0.25

###

system: K. pneumoniae NCTC8172; assay: MIC susceptibility testing, broth microdilution in CaMHB; assay type: cell-based, Klebsiella pneumoniae; details: Table 4
Where a name gives a salt, the structure may show the parent alone. Where a SMILES comes first, the peptide text is derived from it. Bridges are numbered along the chain shown (N, C = ends). [ ]: non-standard residue; d: D form. The star is where a group is joined. ξ: configuration not given here. Thr(3ξ) = CC(O)[C@H](N)C(=O)O; Dab = NCC[C@H](N)C(=O)O; X1 = CCCCCCC(O)C(=O)*
quantity measured: MIC (micrograms/mL)
Report the value in micrograms/mL with no unit label.

// sample CCCCCCC(O)C(=O)N[C@H](C(=O)N[C@@H](CCN)C(=O)N[C@H]1CCNC(=O)[C@H](C(C)O)NC(=O)[C@H](CCN)NC(=O)[C@H](CCN)NC(=O)[C@H](CC(C)C)NC(=O)[C@@H](Cc2ccccc2)NC(=O)[C@H](CCN)NC1=O)C(C)O (stereo partly shown) [Example 2, Sulphate Salt] (X1-[Thr(3ξ)][Dab][Dab][Dab][dF]L[Dab][Dab][Thr(3ξ)]; lactam 3-C) , its MIC was 4

###

test system: E. coli ATCC25922; experiment: MIC susceptibility testing, broth microdilution in CaMHB; type: cell-based, Escherichia coli; details: Table 4
Counter-ions that a name gives are not always drawn. Where a SMILES comes first, the peptide text is derived from it. Bridges are numbered along the chain shown (N, C = ends). [ ]: non-standard residue; d: D form. The star is where a group is joined. ξ: configuration not given here. ξβ3hGly(cHex) = NC(CC(=O)*)C1CCCCC1; Thr(3ξ) = CC(O)[C@H](N)C(=O)O; Dab = NCC[C@H](N)C(=O)O; X1 = CCCCCCC(O)C(=O)*; X2 = NC1CCCC1C(=O)*; X3 = O=C(C1CCNC1)*; GABA = NCCCC(=O)O; βAla = NCCC(=O)O
quantity measured: MIC (micrograms/mL)
Report the value in micrograms/mL with no unit label.

// sample CC(C)C[C@@H]1NC(=O)[C@@H](Cc2ccccc2)NC(=O)[C@H](CCN)NC(=O)[C@@H](NC(=O)[C@H](CCN)NC(=O)[C@@H](NC(=O)CC(N)C2CCCCC2)C(C)O)CCNC(=O)[C@H](C(C)O)NC(=O)[C@H](CCN)NC(=O)[C@H](CCN)NC1=O (stereo partly drawn) [Example 14, Sulphate Salt] ({ξβ3hGly(cHex)}-[Thr(3ξ)][Dab][Dab][Dab][dF]L[Dab][Dab][Thr(3ξ)]; lactam 3-C) , its MIC was 0.5

// sample CC(C)C[C@@H]1NC(=O)[C@@H](Cc2ccccc2)NC(=O)[C@H](CCN)NC(=O)[C@@H](NC(=O)[C@H](CCN)NC(=O)[C@@H](NC(=O)C2CCNC2)C(C)O)CCNC(=O)[C@H](C(C)O)NC(=O)[C@H](CCN)NC(=O)[C@H](CCN)NC1=O (stereo partly shown) [Example 13, Sulphate Salt] (X3-[Thr(3ξ)][Dab][Dab][Dab][dF]L[Dab][Dab][Thr(3ξ)]; lactam 3-C) , its MIC was 0.5

// sample CC(C)C[C@@H]1NC(=O)[C@@H](Cc2ccccc2)NC(=O)[C@H](CCN)NC(=O)[C@@H](NC(=O)[C@H](CCN)NC(=O)[C@@H](NC(=O)CN)C(C)O)CCNC(=O)[C@H](C(C)O)NC(=O)[C@H](CCN)NC(=O)[C@H](CCN)NC1=O (stereo partly shown) [Example 3, Sulphate Salt] (H-G[Thr(3ξ)][Dab][Dab][Dab][dF]L[Dab][Dab][Thr(3ξ)]; lactam 4-C) , its MIC was 2

// sample CC(C)C[C@@H]1NC(=O)[C@@H](Cc2ccccc2)NC(=O)[C@H](CCN)NC(=O)[C@@H](NC(=O)[C@H](CCN)NC(=O)[C@@H](NC(=O)C2CCCC2N)C(C)O)CCNC(=O)[C@H](C(C)O)NC(=O)[C@H](CCN)NC(=O)[C@H](CCN)NC1=O (stereo partly shown) [Example 11, Sulphate Salt] (X2-[Thr(3ξ)][Dab][Dab][Dab][dF]L[Dab][Dab][Thr(3ξ)]; lactam 3-C) , its MIC was 2

// sample CC(C)C[C@@H]1NC(=O)[C@@H](Cc2ccccc2)NC(=O)[C@H](CCN)NC(=O)[C@@H](NC(=O)[C@H](CCN)NC(=O)[C@@H](NC(=O)CCN)C(C)O)CCNC(=O)[C@H](C(C)O)NC(=O)[C@H](CCN)NC(=O)[C@H](CCN)NC1=O (stereo partly shown) [Example 4, Sulphate Salt] (H-[βAla][Thr(3ξ)][Dab][Dab][Dab][dF]L[Dab][Dab][Thr(3ξ)]; lactam 4-C) , its MIC was 2

// sample CCCCCCC(O)C(=O)N[C@H](C(=O)N[C@@H](CCN)C(=O)N[C@H]1CCNC(=O)[C@H](C(C)O)NC(=O)[C@H](CCN)NC(=O)[C@H](CCN)NC(=O)[C@H](CC(C)C)NC(=O)[C@@H](Cc2ccccc2)NC(=O)[C@H](CCN)NC1=O)C(C)O (stereo partly shown) [Example 2, Sulphate Salt] (X1-[Thr(3ξ)][Dab][Dab][Dab][dF]L[Dab][Dab][Thr(3ξ)]; lactam 3-C) , its MIC was 1

// sample CC(C)C[C@@H]1NC(=O)[C@@H](Cc2ccccc2)NC(=O)[C@H](CCN)NC(=O)[C@@H](NC(=O)[C@H](CCN)NC(=O)[C@@H](NC(=O)CCCN)[C@@H](C)O)CCNC(=O)[C@H]([C@@H](C)O)NC(=O)[C@H](CCN)NC(=O)[C@H](CCN)NC1=O [Example 6, Sulphate Salt] (H-[GABA]T[Dab][Dab][Dab][dF]L[Dab][Dab]T; lactam 4-C) , its MIC was 0.5

###

tested on: P. aeruginosa ATCC27853; test: MIC susceptibility testing, broth microdilution in CaMHB; assay type: cell-based, Pseudomonas aeruginosa; conditions: Table 4A, different batches of cation-adjusted Muller-Hinton broth
*1 amine or outer side, *2 acyl side, *3 side chain or, on linkers, in order; H or OH if unused. Where a SMILES comes first, the peptide text is derived from it. Bridges are numbered along the chain shown (N, C = ends). [ ]: non-standard residue; d: D form. The star is where a group is joined. ξ: configuration not given here. GABA(4S-Me) = C[C@@H](CCC(=O)[*:2])N[*:1]; Thr(3ξ) = CC(O)[C@H](N)C(=O)O; NH(2-ClPh) = Clc1ccccc1N*; Octanoyl = CCCCCCCC(=O)*; Dab = NCC[C@H](N)C(=O)O; X7 = NC1CCC(C(=O)*)CC1; CO = O=C([*:1])[*:2]; GABA = NCCCC(=O)O
quantity measured: MIC (micrograms/mL)
Report the value in micrograms/mL with no unit label.

# value of MIC, P. aeruginosa ATCC27853, item CC(C)C[C@@H]1NC(=O)[C@@H](Cc2ccccc2)NC(=O)[C@H](CCN)NC(=O)[C@@H](NC(=O)[C@H](CCN)NC(=O)[C@@H](NC(=O)CC[C@H](C)N)C(C)O)CCNC(=O)[C@H](C(C)O)NC(=O)[C@H](CCN)NC(=O)[C@H](CCN)NC1=O (stereo partly drawn) [Example 31] ({GABA(4S-Me)}-[Thr(3ξ)][Dab][Dab][Dab][dF]L[Dab][Dab][Thr(3ξ)]; lactam 3-C) = 0.25

# value of MIC, P. aeruginosa ATCC27853, item CC(C)C[C@@H]1NC(=O)[C@@H](Cc2ccccc2)NC(=O)[C@H](CCN)NC(=O)[C@@H](NC(=O)[C@H](CCN)NC(=O)[C@@H](NC(=O)[C@H](CCN)NC(=O)Nc2ccccc2Cl)[C@@H](C)O)CCNC(=O)[C@H]([C@@H](C)O)NC(=O)[C@H](CCN)NC(=O)[C@H](CCN)NC1=O [CB-182,804, reference compound] ({NH(2-ClPh)-CO}-[Dab]T[Dab][Dab][Dab][dF]L[Dab][Dab]T; lactam 4-C; N-terminus assumed) = 1

# value of MIC, P. aeruginosa ATCC27853, item CC(C)C[C@@H]1NC(=O)[C@@H](CC(C)C)NC(=O)[C@H](CCN)NC(=O)[C@@H](NC(=O)[C@H](CCN)NC(=O)[C@@H](NC(=O)CCCN)C(C)O)CCNC(=O)[C@H](C(C)O)NC(=O)[C@H](CCN)NC(=O)[C@H](CCN)NC1=O (stereo partly drawn) [Example 25, 4-aminobutanoyl polymyxin E nonapeptide] (H-[GABA][Thr(3ξ)][Dab][Dab][Dab][dL]L[Dab][Dab][Thr(3ξ)]; lactam 4-C) = 4

# value of MIC, P. aeruginosa ATCC27853, item CCCCCCCC(=O)N[C@H](C(=O)N[C@H](CO)C(=O)N[C@H]1CCNC(=O)[C@H]([C@@H](C)O)NC(=O)[C@H](CCN)NC(=O)[C@H](CCN)NC(=O)[C@H](CC(C)C)NC(=O)[C@@H](Cc2ccccc2)NC(=O)[C@H](CCN)NC1=O)[C@@H](C)O [NAB739, reference compound] (Octanoyl-T[dS][Dab][Dab][dF]L[Dab][Dab]T; lactam 3-C; N-terminus assumed) = 1

# value of MIC, P. aeruginosa ATCC27853, item CC(C)C[C@@H]1NC(=O)[C@@H](Cc2ccccc2)NC(=O)[C@H](CCN)NC(=O)[C@@H](NC(=O)[C@H](CCN)NC(=O)[C@@H](NC(=O)C2CCC(N)CC2)C(C)O)CCNC(=O)[C@H](C(C)O)NC(=O)[C@H](CCN)NC(=O)[C@H](CCN)NC1=O (some centres unmarked) [Example 27] (X7-[Thr(3ξ)][Dab][Dab][Dab][dF]L[Dab][Dab][Thr(3ξ)]; lactam 3-C) = 0.125

Values from patent US9234006B2
